TARGET DESC: ERα (Homo sapiens, UniProt P03372)
Sequence (P03372 whole entry): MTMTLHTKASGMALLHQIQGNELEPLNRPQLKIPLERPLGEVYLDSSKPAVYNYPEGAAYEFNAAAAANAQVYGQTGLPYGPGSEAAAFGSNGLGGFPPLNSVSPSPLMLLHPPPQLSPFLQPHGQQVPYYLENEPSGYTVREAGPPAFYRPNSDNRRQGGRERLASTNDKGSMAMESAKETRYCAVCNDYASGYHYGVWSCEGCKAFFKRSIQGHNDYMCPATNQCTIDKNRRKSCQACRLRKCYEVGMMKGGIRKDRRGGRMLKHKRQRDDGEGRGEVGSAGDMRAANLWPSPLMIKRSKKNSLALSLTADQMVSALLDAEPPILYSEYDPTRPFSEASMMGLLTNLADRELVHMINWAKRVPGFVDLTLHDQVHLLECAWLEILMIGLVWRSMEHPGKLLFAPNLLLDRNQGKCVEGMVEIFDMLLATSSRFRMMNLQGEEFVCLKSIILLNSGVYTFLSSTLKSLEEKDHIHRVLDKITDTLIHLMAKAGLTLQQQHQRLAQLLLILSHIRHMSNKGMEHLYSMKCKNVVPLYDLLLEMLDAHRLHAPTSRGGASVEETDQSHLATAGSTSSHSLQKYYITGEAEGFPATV
ASSAY PROTOCOL: Degradation of ERα in T-47D cells (immunoblotting, 4 h)
Type: cell-based
Parameters: host or cells: T-47D
SETUP CONDITIONS: 1nM compound
MEASUREMENT TYPE: Degradation rate (%) of ERα in T-47D cells

Item: O=C1CCC(N2Cc3cc4c(cc3C2=O)CCC2(CN(C(=O)CN3CCC5(CCN(c6ccc([C@@H]7c8ccc(O)cc8CC[C@@H]7c7ccccc7)cc6)CC5)C3)C2)O4)C(=O)N1 (some centres unmarked) | System: ERα (Homo sapiens, UniProt P03372) | Degradation rate (%) of ERα in T-47D cells: 40

Item: O=C1CCC(N2Cc3c(ccc4c3OCC43CCN(C4CCN(C(=O)C5CCN(c6ccc([C@@H]7c8ccc(O)cc8CC[C@@H]7c7ccccc7)cc6)CC5)[C@@H](C(=O)N5CCC(F)(F)C5)C4)CC3)C2=O)C(=O)N1 (some centres unmarked) | System: ERα (Homo sapiens, UniProt P03372) | Degradation rate (%) of ERα in T-47D cells: 49

[A] O=C1CCC(N2Cc3cc4c(cc3C2=O)OC2(CC4)CN(CC3CCN(c4ccc([C@@H]5c6ccc(O)cc6CC[C@@H]5c5ccccc5)cc4)CC3)C2)C(=O)N1 (some centres unmarked)
[B] CCN(C(=O)CN1CCC2(CC1)COc1c2ccc2c1CN(C1CCC(=O)NC1=O)C2=O)C1CC2(CCN(c3ccc([C@@H]4c5ccc(O)cc5CC[C@@H]4c4ccccc4)cc3)CC2)C1 (some centres unmarked)
[C] O=C1CCC(N2Cc3c(ccc4c3OCC43CCN(C(=O)C45CCC(CN6CCN(c7ccc([C@@H]8c9ccc(O)cc9CC[C@@H]8c8ccccc8)cc7)CC6)(CC4)CC5)CC3)C2=O)C(=O)N1 (some centres unmarked)
Q) Give the ascending ranking of the items by reported Degradation rate (%) of ERα in T-47D cells. Returns: the labels arranged in the requested order.
A) A, C, B

###

System: T-47D cells
ASSAY PROTOCOL: Inhibition of cell proliferation in T-47D cells (CCK-8, 6 days)
Type: cell-based
SETUP CONDITIONS: 6 days of treatment, Table 3
MEASUREMENT TYPE: IC50 (nM)

IC50 reported for this compound C[C@H]1CN(C(=O)C2(F)CCN(c3ccc([C@@H]4c5ccc(O)cc5CC[C@@H]4c4ccccc4)cc3)CC2)CCC1N1CCC2(CC1)COc1c2ccc2c1CN(C1CCC(=O)NC1=O)C2=O (stereo partly drawn) : 2.33

IC50 reported for this compound O=C1CCC(N2Cc3c(ccc4c3OCC43CCN(C4CCC5(CC4)CN(c4ccc([C@@H]6c7ccc(O)cc7CC[C@@H]6c6ccccc6)cc4)C5)CC3)C2=O)C(=O)N1 (stereo partly drawn) : 4

IC50 reported for this compound CCN(C1CCN(c2ccc([C@@H]3c4ccc(O)cc4CC[C@@H]3c3ccccc3)cc2)CC1)[C@H]1CC[C@@H](C(=O)N2CCC3(CC2)COc2c3ccc3c2CN(C2CCC(=O)NC2=O)C3=O)CC1 (stereo partly drawn) : 4.04

IC50 reported for this compound O=C1CCC(N2Cc3ccc4c(c3C2=O)OC2(CC4)CCN(C3CC4(CCN(c5ccc([C@@H]6c7ccc(O)cc7CC[C@@H]6c6ccccc6)cc5)CC4)C3)CC2)C(=O)N1 (stereo partly drawn) : 79

IC50 reported for this compound O=C1CCC(N2Cc3ccc4c(c3C2=O)OCC2(CCN(CC3CCN(c5ccc([C@@H]6c7ccc(O)cc7CC[C@@H]6c6ccccc6)cc5)CC3)CC2)C4)C(=O)N1 (stereo partly drawn) : 22.4

IC50 reported for this compound O=C1CCC(N2Cc3cc4c(cc3C2=O)OC2(CC4)CN(C3CCN(C(=O)c4ccc([C@@H]5c6ccc(O)cc6CC[C@@H]5c5ccccc5)cc4)CC3)C2)C(=O)N1 (stereo partly drawn) : 124

[A] O=C1CCC(N2Cc3cc4c(cc3C2=O)CCC2(CN(CC3CC5(CCN(c6ccc([C@@H]7c8ccc(O)cc8CC[C@@H]7c7ccccc7)cc6)CC5)C3)C2)O4)C(=O)N1 (stereo partly drawn)
[B] C[C@@H]1Cc2c(ccc3[nH]ncc23)C(c2ccc(N3CCC4(CCN(C(=O)CN5CCC6(CC5)COc5c6ccc6c5CN(C5CCC(=O)NC5=O)C6=O)CC4)CC3)cn2)N1CC(F)(F)F (stereo partly drawn)
Q) # compare IC50 for A vs B ; return the one with the smaller value Please identify the chosen entry by its label.
A) B
(B: 3.49 nM, A: 33 nM)

[I] CN(C(=O)CN1CCC2(CC1)COc1c2ccc2c1CN(C1CCC(=O)NC1=O)C2=O)C1CCC2(CC1)CCN(c1ccc([C@@H]3c4ccc(O)cc4CC[C@@H]3c3ccccc3)cc1)CC2 (stereo partly drawn)
[II] O=C1CCC(N2Cc3c(ccc4c3OCC43CCN(C4CCN(C(=O)C5CCN(c6ccc([C@@H]7c8ccc(O)cc8CC[C@@H]7c7ccccc7)cc6)CC5)[C@H](C(=O)N5CCC5)C4)CC3)C2=O)C(=O)N1 (stereo partly drawn)
[III] C[C@@H]1Cc2c(ccc3[nH]ncc23)C(c2ccc(N3CC4(CCC(N5CCC6(CC5)COc5c6ccc6c5CN(C5CCC(=O)NC5=O)C6=O)CC4)C3)cn2)N1CC(F)(F)F (stereo partly drawn)
[IV] O=C1CCC(N2Cc3cc4c(cc3C2=O)OC2(CC4)CN(C(=O)[C@H]3CC[C@H](CN4CCN(c5ccc([C@@H]6c7ccc(O)cc7CC[C@@H]6c6ccccc6)cc5)CC4)CC3)C2)C(=O)N1 (stereo partly drawn)
[V] O=C1CCC(N2Cc3cc4c(cc3C2=O)OCC42CCN(CC3CCN(c4ccc([C@@H]5c6ccc(O)cc6CC[C@@H]5c5ccccc5)cc4)CC3)CC2)C(=O)N1 (stereo partly drawn)
Q) Rank the 5 compounds: largest IC50 first, smallest last. Returns: the labels arranged in the requested order.
A) III, V, I, II, IV
(III: 316 nM, V: 16.7 nM, I: 3.59 nM, II: 1.47 nM, IV: 0.99 nM)

[I] O=C1CCC(N2Cc3c(ccc4c3OCC43CCN(C(=O)c4ccc(CN5CCN(c6ccc([C@@H]7c8ccc(O)cc8CC[C@@H]7c7ccccc7)cc6)CC5)cc4)CC3)C2=O)C(=O)N1 (stereo partly drawn)
[II] CN(C1CCN(c2ccc([C@@H]3c4ccc(O)cc4CC[C@@H]3c3ccccc3)cc2)CC1)[C@H]1CC[C@H](C(=O)N2CCC3(CC2)COc2c3ccc3c2CN(C2CCC(=O)NC2=O)C3=O)CC1 (stereo partly drawn)
Q) Thinking about recorded IC50 values, which is higher, I or II ? Please identify the chosen entry by its label.
A) II

[P] O=C1CCC(N2Cc3cc4c(cc3C2=O)CCC2(CCN(C3CC5(CCN(c6ccc([C@@H]7c8ccc(O)cc8CC[C@@H]7c7ccccc7)cc6)CC5)C3)CC2)O4)C(=O)N1 (stereo partly drawn)
[Q] O=C1CCC(N2Cc3c(ccc4c3OCC43CCN(C4CCN(C5CC6(CCN(c7ccc([C@@H]8c9ccc(O)cc9CC[C@@H]8c8ccccc8)cc7)CC6)C5)[C@@H](C(=O)NC5CC5)C4)CC3)C2=O)C(=O)N1 (stereo partly drawn)
[R] O=C1CCC(N2Cc3ccc4c(c3C2=O)CC2(CCN(C3CCC5(CC3)CN(c3ccc([C@@H]6c7ccc(O)cc7CC[C@@H]6c6ccccc6)cc3)C5)CC2)CO4)C(=O)N1 (stereo partly drawn)
Q) Give the ascending ranking of the items by reported IC50. Returns: the labels arranged in the requested order.
A) Q, P, R
